tested on: HIV; assay: microbe, parasite or virus in culture; format: cell-based; conditions: Human immunodeficiency virus 1, CCRF-CEM, CEM cells, free HIV; read-out: Activity of Anti-HIV Compounds (EC50), CEMV
observed_property: pEC50
Recall that pEC50 is obtained by taking minus log10 of the concentration measured in molar.

Example results:
Fill in: pEC50 of CCOC(=O)c1ccc(C)c(NC(=O)C2=C(C)OCCS2)c1 [Compound 14] is ___
5.12

Fill in: pEC50 of CCOC(=O)c1cc(NC(=O)C2=C(C)OCCS2)ccc1Cl [Compound 4] is ___
6.40

Fill in: pEC50 of CCCCCOC(=O)c1cc(NC(=O)C2=C(C)OCCS2)ccc1Cl [Compound 15] is ___
6.09

Others:
Fill in: pEC50 of Cc1ccccc1C(=O)Nc1ccc(Cl)c(C(=O)OC(C)C)c1 [Compound 23] is ___
5.24

Fill in: pEC50 of CC1=C(C(=O)Nc2cccc(C(=O)OC(C)C)c2)SCCO1 [Compound 10] is ___
5.52

Fill in: pEC50 of CCCCOC(=O)c1cc(NC(=O)C2=C(C)OCCS2)ccc1Cl [Compound 6] is ___
7.00
